- subject_of_test: CsrA-His6 (Campylobacter jejuni 81-176)
- Sequence: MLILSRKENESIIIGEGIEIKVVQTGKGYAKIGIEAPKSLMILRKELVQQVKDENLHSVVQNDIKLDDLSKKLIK
- measurement_description: EMSA
- cond: 10 mM Tris-HCl pH 7.5, 10 mM MgCl2, 100 mM KCl, 32.5 ng yeast RNA, 20 mM DTT, 7.5% glycerol, 4 U RNase inhibitor, 10 ul, 30 min at 37 C; 15% native PAGE
measured_property: pKd
Scale: pKd equals -log10([C]), with [C] in mol/L.

Query: Identify the measured pKd of GGGUAUAAAUUUUUAAAAAAAAGUAACGAUAUAGCAUUUAACAAGCUCAUGGAUGAGUUUGAAAUUAUUUAAAAGGAUUUAAA [flaA mRNA 5' end transcript] for CsrA-His6 (Campylobacter jejuni 81-176).
Reply: 8.19
